target: IDH1 R132C (Homo sapiens, UniProt O75874, R132C); construct: endogenous in cells; test: Detection of 2-HG in supernatant of HT1080 cells carrying IDH1 R132C; settings: 72 h, LC-MS-MS
Sequence (O75874 whole entry R132C): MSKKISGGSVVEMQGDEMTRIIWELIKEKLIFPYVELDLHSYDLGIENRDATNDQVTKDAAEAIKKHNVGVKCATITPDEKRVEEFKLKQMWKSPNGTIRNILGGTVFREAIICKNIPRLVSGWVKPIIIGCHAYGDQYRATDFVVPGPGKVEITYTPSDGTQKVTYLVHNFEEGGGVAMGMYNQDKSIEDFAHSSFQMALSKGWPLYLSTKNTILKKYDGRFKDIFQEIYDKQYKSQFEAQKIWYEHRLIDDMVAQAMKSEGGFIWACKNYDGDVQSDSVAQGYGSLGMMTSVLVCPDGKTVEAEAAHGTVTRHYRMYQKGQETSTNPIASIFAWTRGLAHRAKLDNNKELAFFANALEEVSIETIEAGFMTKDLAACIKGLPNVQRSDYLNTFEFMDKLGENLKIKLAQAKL
pIC50: −log10 of the molar value.
recordedMetric: pIC50

compound | resultNumber
C=CC(=O)N1CCN([C@@H](CC2CC2)c2ccc([C@H](C)Nc3ncc4[nH]c(=O)n(C5CCC5)c4n3)cc2)CC1 | 8.58
C=CC(=O)N1CCN([C@@H](CC2CC2)c2ccc([C@H](C)Nc3ncc4[nH]c(=O)n(C5CC5)c4n3)cc2)CC1 | 7.94
C=CC(=O)N1CCN(C(CC2CC2)c2ccc([C@H](C)Nc3ncc4[nH]c(=O)n(CC)c4n3)cc2)CC1 (stereo partly drawn) | 8.35
